# credit: paper PMC10331583

# Protocol description: Cytotoxicity assay in cells stably expressing PARS1 mutant
# Cond: human, Cytotoxicity, % of control (single replicates, Experiment #1-#4), WI-26 VA4 Flag-PARS1 FA/EA/RL; 100000 nM
Assay metric: activity at 72 h, 100 µM (%)
The reply should be a number in %, with the unit left off.

Query: For the molecule O[C@H]1CCCN[C@@H]1CCCn1cnc2c(Cl)c(Cl)ccc21 [DWN12088] , report activity at 72 h, 100 µM.
Response: 22.8

###

# Protocol description: in vitro
# Cond: human, Cytotoxicity, % of control, average
Assay metric: activity at 72 h, 0.003 µM (%)
The reply should be a number in %, with the unit left off.

Query: For the compound O=C(CC1NCCCC1O)Cn1cnc2cc(Br)c(Cl)cc2c1=O (stereo not shown) [HF, Halofuginone, reference compound] , report activity at 72 h, 0.003 µM.
Response: 107

###

# Test system: TNT Quick Coupled Transcription/Translation System (luciferase synthesis)
# Type: biochemical
# Cond: 6000 nM; average
Could you please report measured TNT-luciferase % of control, average for the items listed next?

Query: Specify the recorded TNT-luciferase % of control, average for O=C(C[C@H]1NCCC[C@@H]1O)Cn1cnc2ccc(-c3cccc(F)c3)cc21 , system: TNT Quick Coupled Transcription/Translation System (luciferase synthesis).
Response: 59.70 % of control

Query: Specify the recorded TNT-luciferase % of control, average for Cc1c(Cl)ccc2c1ncn2CC(=O)C[C@H]1NCCC[C@@H]1O , system: TNT Quick Coupled Transcription/Translation System (luciferase synthesis).
Response: 14.83 % of control

Query: Specify the recorded TNT-luciferase % of control, average for O[C@H]1CCCN[C@@H]1CCCn1cnc2c(Cl)c(Cl)ccc21 , system: TNT Quick Coupled Transcription/Translation System (luciferase synthesis).
Response: 105.03 % of control

Query: Specify the recorded TNT-luciferase % of control, average for Cc1c(Br)cnc2c1ncn2CC(=O)C[C@H]1NCCC[C@@H]1O , system: TNT Quick Coupled Transcription/Translation System (luciferase synthesis).
Response: 0.11 % of control

###

# Protocol description: Cytotoxicity assay in cells stably expressing EV
# Cond: human
Assay metric: CC50 at 72 h (µM)
The reply should be a number in µM, with the unit left off.

Query: For the compound O[C@H]1CCCN[C@@H]1CCCn1cnc2c(Cl)c(Cl)ccc21 , report CC50 at 72 h.
Response: 24

###

# Protocol description: Cytotoxicity assay in cells stably expressing EV
# Cond: human, Cytotoxicity, % of control, average, WI-26 VA4 EV; 300 nM
Assay metric: activity at 72 h, 0.3 µM
Number plus unit, in that order.

Query: For the molecule O[C@H]1CCCN[C@@H]1CCCn1cnc2c(Cl)c(Cl)ccc21 , report activity at 72 h, 0.3 µM.
Response: 125%

###

# Target of assay: His‐PARS1 (Homo sapiens)
# Construct: His‐PARS1 (1001–1,512 aa); made in house; host or cells: Escherichia coli
# Sequence (P07814 1001-1512 limits assumed): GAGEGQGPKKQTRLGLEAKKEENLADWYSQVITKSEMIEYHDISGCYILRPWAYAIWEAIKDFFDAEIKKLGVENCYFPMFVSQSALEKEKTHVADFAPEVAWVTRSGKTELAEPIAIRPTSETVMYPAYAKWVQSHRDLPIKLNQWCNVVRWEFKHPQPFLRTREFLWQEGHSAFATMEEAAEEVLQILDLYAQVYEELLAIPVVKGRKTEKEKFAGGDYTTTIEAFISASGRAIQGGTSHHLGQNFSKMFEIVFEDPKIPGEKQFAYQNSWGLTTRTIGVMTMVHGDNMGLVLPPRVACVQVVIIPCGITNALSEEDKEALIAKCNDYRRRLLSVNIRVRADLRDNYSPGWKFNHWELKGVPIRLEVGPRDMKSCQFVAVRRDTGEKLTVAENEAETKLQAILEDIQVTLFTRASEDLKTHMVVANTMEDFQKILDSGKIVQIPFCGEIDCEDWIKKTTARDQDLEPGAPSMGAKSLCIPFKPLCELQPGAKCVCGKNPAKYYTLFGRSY
# Protocol description: Surface plasmon resonance (SPR)
# Type: binding
# Cond: - ATP; read-out: KD
Assay metric: pKd
pKd is defined as minus the log10 of a concentration measured in mol/L.

Query: For the compound O=C(CC1NCCCC1O)Cn1cnc2cc(Br)c(Cl)cc2c1=O (stereo not shown) [HF, Halofuginone, reference compound] , report pKd.
Response: 4.32
